# Tested on: SF-268
# experimentalProtocol: NCI tumour cell line growth inhibition, 48 h
The source made the active and inactive calls. No stated cut-off is given here; in the data, active = GI50 up to about 1.1 µM and inactive = higher.
Exercise: state measured GI50 for each of the molecules provided.

Below are worked cases with known answers.
{"columns": ["molecule", "GI50"],
 "data": [
  ["Cc1ccc(S(=O)(=O)N/N=C2\\C=C[C@]3(CC2)C(=O)N(C)c2ccccc23)cc1", "> 100 µM (inactive)"],
  ["CCN(CC)c1ccc(/C=C2/C[N+](C)(C)C/C(=C/c3ccc(N(CC)CC)cc3)C2=O)cc1", "2.58 µM (inactive)"]
]}

Report GI50 for every entry below.
1. NCCNC(=O)c1cccc2cc3ccccc3nc12
2. CCOC(=O)c1oc2c(OC)ccc3c2c1CCC3
3. C/C(NC(=O)c1ccccc1)=C(/C(=O)c1ccccc1)[C@@H]1OC(C)(C)O[C@@H]1[C@H]1COC(C)(C)O1
4. S=C(S)N1CCN(c2ccccc2)CC1

[out]
1.61 µM (inactive)
> 100 µM (inactive)
35.6 µM (inactive)
88.3 µM (inactive)

Report GI50 for every entry below.
1. O=C(O)CC(Cc1ccccc1Cl)C(=O)O (stereo not given)
2. COC1CC(OS(=O)(=O)c2ccc([N+](=O)[O-])cc2)C(OC(=O)c2ccccc2)C(C)O1 (stereo not given)
3. COc1ccc(/N=N/C(=N/NC(=O)c2cc(Cl)ccc2C(=O)c2ccccc2)c2ccc(N(CCC#N)CCC#N)cc2C)cc1
4. N#Cc1sc2c(c1OC(=O)c1ccc(Cl)cc1)c(=O)n(-c1ccccc1)c(=S)n2-c1ccccc1

[out]
["> 100 µM (inactive)", "82.2 µM (inactive)", "12.1 µM (inactive)", "23.3 µM (inactive)"]

----------
# Tested on: Hs-578T
# experimentalProtocol: NCI tumour cell line growth inhibition, 48 h
Active and inactive are the calls of the source. Rule as the data show it: active = GI50 up to about 1.1 µM and inactive = higher. Where a SMILES comes first, the peptide text is derived from it. The star is where a group is joined. Boc = CC(C)(C)OC(=O)*
Exercise: state measured GI50 for each of the compounds provided.

Below are worked cases with known answers.
{"columns": ["compound", "systemName", "GI50"],
 "data": [
  ["COc1ccc2c(c1)CCCN1Cc3ccccc3CC21 (centres undefined)", "Hs-578T", "> 100 µM (inactive)"],
  ["COP(C)(=O)/C(Cc1ccccc1)=N\\O (centres undefined)", "Hs-578T", "> 100 µM (inactive)"],
  ["CN(C)CCCNc1c2ccccc2[n+]([O-])c2ccccc12", "Hs-578T", "22.6 µM (inactive)"]
]}

Report GI50 for every entry below.
1. CCN(CC)CCOc1ccc(N2C(=O)c3cccc4cc([N+](=O)[O-])cc(c34)C2=O)cc1
2. COC(=O)[C@H](Cc1ccc(O)cc1)NC(=O)[C@H](Cc1ccc(O)cc1)NC(=O)OC(C)(C)C (Boc-Tyr-Tyr-OMe)
3. COC(=O)/C1=C/C=C\C[C@@]2(C)CC(c3ccoc3)OC(=O)[C@@H]2CC[C@H]1C (some centres undefined)
4. CCOC(=O)C(NC(=O)N(C1=NCC(C)S1)C1CCCCC1)(OC)C(F)(F)F (centres undefined)

[out]
1: 14.7 µM (inactive); 2: > 100 µM (inactive); 3: > 25 µM (inactive); 4: 42.5 µM (inactive)

Report GI50 for every entry below.
1. O=c1ccn(CC2(CO)CCC2)c(=O)[nH]1
2. COc1cc(CO)c(CC(=O)NCCCc2ccccc2)cc1OC
3. COc1cc2c(cc1O)CC1c3c(cc(O)c(OC)c3-2)CCN1C (centres undefined)
4. COc1ccc(C(=O)N2CCN(c3ccc4c(c3)OCC(=O)N4)CC2)cc1OC
5. O=C1/C(=C/c2ccc(Oc3ccccc3)cc2)N=C(c2ccccc2)N1c1ccc(S(=O)(=O)Nc2nccs2)cc1

[out]
1. > 100 µM (inactive)
2. > 100 µM (inactive)
3. > 100 µM (inactive)
4. > 100 µM (inactive)
5. 39.4 µM (inactive)

Report GI50 for every entry below.
1. CC(C)(C)OC(=O)NC(Cc1ccc(OCc2ccccc2)cc1)C(=O)NC(COCc1ccccc1)C(=O)Oc1c(Cl)c(Cl)c(Cl)c(Cl)c1Cl (centres undefined)
2. C[n+]1c(-c2ccc(/C=N/Nc3ccnc(N/N=C/c4ccc(-c5cn6ccccc6[n+]5C)cc4)n3)cc2)cn2ccccc21
3. CC(C)(O)C1CC[C@]2(C)CC[C@]3(C)[C@H](CC[C@@H]4[C@@]5(C)CC[C@H](O)C(C)(C)[C@@H]5CC[C@]43C)[C@@H]12 (some centres undefined)
4. COC(=O)Cc1c([C@H]2[C@H](CC(=O)OC)c3ccccc3N2C(=O)C(F)(F)F)[nH]c2ccccc12
5. COc1c2c(nc3ccccc13)-c1cc3c(c(=O)n1C2)COC(=O)C3(O)CC(=O)N1CCOCC1 (centres undefined)
6. CC1=C(C)C2(C#N)C(=O)N3C(=NC(c4ccco4)NC3c3ccco3)C2(C#N)C(c2ccco2)N1 (centres undefined)
7. CN(C)Cc1cc(/N=N/c2ccc(Cl)cc2)ccc1OC(=O)c1ccccc1

[out]
17.7 µM (inactive)
30.5 µM (inactive)
22.7 µM (inactive)
22.8 µM (inactive)
12.6 µM (inactive)
> 100 µM (inactive)
16.4 µM (inactive)
